biological target: human DGKα (Homo sapiens, UniProt P23743); experiment: DGKα Biochemical Activity Assay (ADP-Glo); settings: recombinant DGKα 1 nM, 100 μM ATP, 18:1 DAG/POPS/octylglucoside micelles, 1 hour at 25° C.; geometric mean; read-out: HTBS DGKa 1X ATP KM IC50
Sequence (P23743 whole entry): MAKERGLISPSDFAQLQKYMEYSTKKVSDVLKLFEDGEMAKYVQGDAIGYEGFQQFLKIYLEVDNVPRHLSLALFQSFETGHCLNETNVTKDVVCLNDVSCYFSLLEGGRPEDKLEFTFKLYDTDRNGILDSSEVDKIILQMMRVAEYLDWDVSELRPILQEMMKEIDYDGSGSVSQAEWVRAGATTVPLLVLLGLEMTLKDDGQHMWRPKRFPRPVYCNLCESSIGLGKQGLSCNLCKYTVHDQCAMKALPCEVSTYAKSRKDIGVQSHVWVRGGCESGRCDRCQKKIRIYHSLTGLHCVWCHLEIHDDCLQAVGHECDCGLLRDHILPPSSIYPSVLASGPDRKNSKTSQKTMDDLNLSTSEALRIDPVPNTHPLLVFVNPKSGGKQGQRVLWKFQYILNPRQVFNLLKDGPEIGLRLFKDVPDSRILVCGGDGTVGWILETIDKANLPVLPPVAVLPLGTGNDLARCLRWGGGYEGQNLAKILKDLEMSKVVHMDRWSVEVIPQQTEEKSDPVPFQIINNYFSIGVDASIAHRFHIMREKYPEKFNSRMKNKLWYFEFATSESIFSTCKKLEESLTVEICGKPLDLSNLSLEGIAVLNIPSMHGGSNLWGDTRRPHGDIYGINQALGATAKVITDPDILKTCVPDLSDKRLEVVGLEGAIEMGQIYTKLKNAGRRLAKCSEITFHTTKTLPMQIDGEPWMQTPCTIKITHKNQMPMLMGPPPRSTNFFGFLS
readout label: IC50 (nM)
Number only, in nM; omit the unit.

compound="Cc1nnc2nc(N3CCOCc4c(C#CC(C)(C)C(F)(F)F)cccc43)c3cc(F)ccc3n12 [Example 210]" readout_label=IC50 numeric_value=5.88
compound="Fc1cc(F)c2c(c1)c(N1CCCc3c(C#CC4(C(F)(F)F)CC4)cccc31)nc1nncn12 [Example 118]" readout_label=IC50 numeric_value=4.89

Which value of IC50 has been reported for CC(C)(C#Cc1cccc(N(CC(F)F)c2nc3nncn3c3ccc(F)cc23)c1F)C(F)F [Example 57] in the records?
46.2

And for Cc1nnc2nc(N3CCCc4c(C#CC5(O)CCC6(CC5)CC6)cccc43)c3c(F)cccc3n12 [Example 197] ?
11

And for Cc1nnc2nc(N(CC(F)F)c3cc(F)cc(C#CC4(O)CCC4)c3)c3c(F)cccc3n12 [Example 21] ?
21

And for Cc1nnc2nc(N3CCOCc4c(C#CC(C)(C)C(F)F)cccc43)c3c(F)cccc3n12 [Example 190] ?
6.91

And for Cc1nnc2nc(N3CCCc4c(C#CC5CCC5)cccc43)c3cc(F)ccc3n12 [Example 30] ?
14.7

And for Cc1nnc2nc(N3CCCCc4c(C#CC5(NC(=O)C6(C(F)(F)F)CC6)CC5)cccc43)c3c(F)cccc3n12 [Example 177] ?
6.74

And for Cc1nnc2nc(N3CCOCc4c3ccnc4C#CC3(C)CC3)c3c(F)cccc3n12 [Example 141] ?
4.76

And for Cc1nnc2nc(N(CC(F)F)c3cc(F)cc(C#Cc4cnn(C)c4)c3)c3c(F)c(F)ccc3n12 [Example 227] ?
29.3

And for CC(C)(C#Cc1cccc2c1OCCCN2c1nc2nncn2c2cccc(F)c12)C(F)(F)F [Example 123] ?
31.5

And for Cc1nnc2nc(N3CCCCc4c(C#CC5(C)COC5)cccc43)c3c(F)cccc3n12 [Example 193] ?
2.85

And for Cc1nnc2nc(N3CCOCc4c(C#CC5(C)COC5)cccc43)c3c(F)cccc3n12 [Example 194] ?
0.773

And for Cc1nnc2nc(N3CCCCc4c(C#CC5(C)CC5)cncc43)c3c(F)c(F)ccc3n12 [Example 7] ?
23.1

And for Cc1nnc2nc(N3CCCc4c(C#CC5CC(F)(F)C5)cccc43)c3cc(F)ccc3n12 [Example 32] ?
11

And for CC(F)(F)C1(C#Cc2cccc3c2CCCCN3c2nc3nncn3c3ccc(F)c(F)c23)CC1 [Example 208] ?
18.7

----------
Measured IC50 of individual entries
target: human DGKα (Homo sapiens); assay: DGKα Biochemical Activity Assay (ADP-Glo); conditions: recombinant DGKα 1 nM, 100 μM ATP, 18:1 DAG/POPS/octylglucoside micelles, 1 hour at 25° C.; geometric mean; read-out: HTBS DGKa 1X ATP KM IC50
Field: value (include unit after the number)

Answered examples (3):
mol_smiles=Cc1nnc2nc(N3CCOCc4c(C#CC5(C)CC5)cccc43)c3c(F)c(F)ccc3n12 readout_label=IC50 result="2.49 nM"
mol_smiles=Cc1nnc2nc(N3CCCOc4c(C#CC5CC5)cncc43)c3c(F)c(F)ccc3n12 readout_label=IC50 result="18 nM"
mol_smiles=Cc1nnc2nc(N3CCCc4c(C#CC5CCOCC5)cccc43)c3c(F)cccc3n12 readout_label=IC50 result="22.5 nM"

Which value of IC50 has been reported for `Cc1nnc2nc(N3CCCCc4c(C#CC5(C)CC5)cncc43)c3c(F)cccc3n12` in the records?
44.1 nM

----------
Measured IC50 of individual entries
biological target: human DGKα (Homo sapiens, UniProt P23743); assay: DGKα Biochemical Activity Assay (ADP-Glo); conditions: recombinant DGKα 1 nM, 100 μM ATP, 18:1 DAG/POPS/octylglucoside micelles, 1 hour at 25° C.; geometric mean; read-out: HTBS DGKa 1X ATP KM IC50
Field: value (include unit after the number)

mol_smiles=Cc1nnc2nc(N3CCOCc4c(N5CC6CC(C5)C6(F)F)cccc43)c3c(F)cccc3n12 readout_label=IC50 result="82.8 nM"
mol_smiles=CC(F)(F)C1(C#Cc2cccc3c2COCCN3c2nc3nncn3c3ccc(F)c(F)c23)CC1 readout_label=IC50 result="6.77 nM"
mol_smiles=Cc1nccn1C(C)(C)C#Cc1cccc2c1CCCN2c1nc2nnc(C)n2c2cccc(F)c12 readout_label=IC50 result="13.4 nM"
mol_smiles=Cc1nnc2nc(N(CC(F)F)c3ccnc(C#CC4CC4)c3)c3cc(F)ccc3n12 readout_label=IC50 result="3.5 nM"

Which value of IC50 has been reported for `Cc1nnc2nc(N3CCCCc4c(C#CC5(C)COC5)cccc43)c3c(F)c(F)ccc3n12` in the records?
4.58 nM

----------
target: UniProt P23743; assay: DGKα Biochemical Activity Assay (ADP-Glo); details: recombinant DGKα 1 nM, 100 μM ATP, 18:1 DAG/POPS/octylglucoside micelles, 1 hour at 25° C.; geometric mean; read-out: HTBS DGKa 1X ATP KM IC50
Rule for this label: T means IC50 is less than 10 nM; F means IC50 is at least 10 nM.

Answered examples (4):
mol_smiles=OC1(C#Cc2cccc3c2CCCN3c2nc3nncn3c3cccc(F)c23)CCCCC1 label_class=T
mol_smiles=Cc1nnc2nc(N3CCOCc4c3ccnc4C#CC(C)(C)C(F)F)c3c(F)cccc3n12 label_class=F
mol_smiles=CC(C)(O)C#Cc1cccc2c1COCCN2c1nc2nncn2c2c(Cl)ccc(F)c12 label_class=F
mol_smiles=Cc1nnc2nc(N3CCCCc4c(C#CC(C)(C)C#N)cncc43)c3c(F)c(F)ccc3n12 label_class=F

Record `Cc1nnc2nc(N3CCOCc4c(C#CC(C)(C)C(F)(F)F)cccc43)c3c(F)c(F)ccc3n12` : is its IC50 strictly below 10 nM?
F

And for `Cc1nnc2nc(N3CCCc4c(N5CCC(C)(F)CC5)cccc43)c3c(F)cccc3n12` ?
F

And for `CC(C)(O)C#Cc1cc(F)cc2c1CCCN2c1nc2nncn2c2c(F)cc(F)cc12` ?
T

And for `Cc1nnc2nc(N3CCCc4c(N5CCC(F)(F)CC5)cccc43)c3c(F)cccc3n12` ?
F

And for `Cc1nnc2nc(N3CCOCc4c3ccnc4C#CC3(C)CC3)c3cc(F)ccc3n12` ?
T

And for `Cc1nnc2nc(N3CCCc4c(C#Cc5cnn(C)c5)cccc43)c3c(F)c(F)ccc3n12` ?
T

----------
target: human DGKα (Homo sapiens, UniProt P23743); test: DGKα Biochemical Activity Assay (ADP-Glo); conditions: recombinant DGKα 1 nM, 100 μM ATP, 18:1 DAG/POPS/octylglucoside micelles, 1 hour at 25° C.; geometric mean; read-out: HTBS DGKa 1X ATP KM IC50;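 note: luminescent detection of ADP produced as DGKα phosphorylates DAG to phosphatidic acid, IC50 from four-parameter nonlinear curve fit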
Rule for this label: YES means IC50 is less than 20 nM; NO means IC50 is at least 20 nM.

molecule=COc1ccc(C#Cc2cccc3c2COCCN3c2nc3nnc(C)n3c3cccc(F)c23)cn1 target_or_system="human DGKα (Homo sapiens, UniProt P23743)" label_class=YES
molecule=Cc1nnc2nc(N(CC(F)F)c3cc(F)cc(C#CC4(C)COC4)c3)c3c(F)cccc3n12 target_or_system="human DGKα (Homo sapiens, UniProt P23743)" label_class=YES
molecule=Cc1nnc2nc(N3CCCc4c(C#CC5(C(F)(F)F)CC5)cccc43)c3c(Cl)c(F)ccc3n12 target_or_system="human DGKα (Homo sapiens, UniProt P23743)" label_class=NO
molecule=Cc1nnc2nc(N3CCCCc4c(C#CC5(C(F)(F)F)CC5)cncc43)c3cc(F)ccc3n12 target_or_system="human DGKα (Homo sapiens, UniProt P23743)" label_class=NO
molecule=Cc1nnc2nc(N3CCCc4c(C#Cc5ccnn5C)cccc43)c3cc(F)ccc3n12 target_or_system="human DGKα (Homo sapiens, UniProt P23743)" label_class=NO

Record `Cc1nnc2nc(N3CCOCc4c(C#Cc5cnn(C)c5)cccc43)c3c(F)cccc3n12` : is its IC50 strictly below 20 nM?
YES

And for `CC(C)(C#Cc1nccc(N(CC(F)F)c2nc3nncn3c3ccc(F)cc23)c1F)C(F)(F)F` ?
YES

And for Cc1nnc2nc(N3CCCc4c(C#CC5(O)CC6CC(C6)C5)cccc43)c3c(F)cccc3n12 (centres unmarked) ?
YES

----------
target: human DGKα (Homo sapiens); experiment: DGKα Biochemical Activity Assay (ADP-Glo); conditions: recombinant DGKα 1 nM, 100 μM ATP, 18:1 DAG/POPS/octylglucoside micelles, 1 hour at 25° C.; geometric mean; read-out: HTBS DGKa 1X ATP KM IC50
Measured pIC50 of individual entries
Lab note: report pIC50 as minus log10 of the concentration in molar units, number only.

Answered examples (5):
compound=Cc1nnc2nc(N3CCCc4c(C#CC(C)(C)C(F)F)cccc43)c3c(Cl)c(F)ccc3n12 numeric_value=7.52
compound=CC1(C#Cc2cc(N(CC(F)F)c3nc4nncn4c4ccc(F)c(F)c34)ccn2)CC1 numeric_value=8.37
compound=CC1(C#Cc2cc(N(CC(F)F)c3nc4nncn4c4c(Cl)cc(F)cc34)ccn2)CC1 numeric_value=8.07
compound=Cc1nnc2nc(N3CCCc4c(C#CC(C)(C)C(=O)O)cccc43)c3c(F)cccc3n12 numeric_value=7.21
compound=CC(C)(C#Cc1cccc2c1COCCN2c1nc2nncn2c2c(Cl)ccc(F)c12)C(F)F numeric_value=7.96

Which value of pIC50 has been reported for `Cc1nnc2nc(N3CCCc4c(C#Cc5cnn(C)c5)cccc43)c3cc(F)ccc3n12` in the records?
8.44

And for `Cc1nnc2nc(N3CCOCc4c3ccnc4C#CC3(C(F)F)CC3)c3c(F)cccc3n12` ?
8.26

And for `Cc1nnc2nc(N3CCCc4c(C#CC(C)(C)n5ccnc5)cccc43)c3c(F)cccc3n12` ?
7.39

And for `Cc1nnc2nc(N3CCOCc4c(C#CC5(C(F)F)CC5)cccc43)c3c(F)cccc3n12` ?
8.44

And for `Cc1nnc2nc(N3CCCc4c(C#CC5(C)COC5)cccc43)c3cc(F)ccc3n12` ?
8.48
